Target: CCK receptor (brain, cerebral cortex) (Cavia porcellus)
Construct: Cerebral cortex was dissected and used as a receptor source; from tissue; host or cells: guinea pig cerebral cortex membranes (male Hartley)
Assay: biochemical
Format: binding, Male Hartley guinea pigs
Conditions: guinea pig cerebral cortex, ^125 I-CCK-33, 25° C., 2 hours; read-out: IC50 ^125 I-CCK Brain

- compound: "CCNC(=O)CN1C(=O)C(NC(=O)Nc2ccc(Cl)cc2)N=C(c2ccccc2)c2ccccc21 (centres unmarked)"
  IC50: "11 nM"
- compound: "CC(C(=O)O)N1C(=O)C(NC(=O)OCc2ccccc2)N=C(c2ccccc2)c2ccccc21 (centres unmarked)"
  IC50: "2800 nM"
- compound: "CSC1=N[C@@H](Cc2c[nH]c3ccccc23)C(=O)N(C)c2ccccc21"
  IC50: "100000 nM"
- compound: "COc1cc(NC(=O)NC2N=C(c3ccccc3)c3ccccc3N(C)C2=O)cc(OC)c1 (centres unmarked)"
  IC50: "2300 nM"
- compound: "CN1C(=O)[C@H](NC(=O)C2CCCCC2)N=C(c2ccccc2)c2ccccc21"
  IC50: "18000 nM"
- compound: "O=C(CN1C(=O)C(NC(=O)Nc2ccc(Cl)cc2)N=C(c2ccccc2)c2ccccc21)NCc1ccccc1 (centres unmarked)"
  IC50: "100 nM"
- compound: "O=C(C=Cc1ccccc1)NC1N=C(c2ccccc2F)c2ccccc2NC1=O (racemic)"
  IC50: "5500 nM"
- compound: "CCOC(=O)CN1C(=O)C(NC(=O)NC(C)C)N=C(c2ccccc2F)c2ccccc21 (centres unmarked)"
  IC50: "> 300 nM"

====

Target: Gastrin receptor (gastric glands) (Cavia porcellus)
Construct: The washed guinea pig gastric glands prepared as above were resuspended; from tissue; host or cells: guinea pig gastric mucosal glands (male Hartley)
Sequence (H0VZC5 1-426): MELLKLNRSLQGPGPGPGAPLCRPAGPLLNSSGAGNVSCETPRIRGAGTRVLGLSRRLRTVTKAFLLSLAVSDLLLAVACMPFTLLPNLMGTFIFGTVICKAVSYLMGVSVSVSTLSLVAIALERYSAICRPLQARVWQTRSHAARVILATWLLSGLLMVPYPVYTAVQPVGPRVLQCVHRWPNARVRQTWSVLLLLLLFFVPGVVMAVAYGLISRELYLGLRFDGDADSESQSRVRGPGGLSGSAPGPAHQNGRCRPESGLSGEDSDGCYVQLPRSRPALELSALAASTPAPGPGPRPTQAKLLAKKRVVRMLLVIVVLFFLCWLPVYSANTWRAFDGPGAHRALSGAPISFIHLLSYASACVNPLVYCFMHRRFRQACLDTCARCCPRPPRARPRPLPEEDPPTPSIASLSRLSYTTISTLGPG
Test: Gastrin Receptor Binding in Guinea Pig Gastric Glands
Parameters: species or system guinea pig (male Hartley)
Settings: IC50 ^125 I-Gastrin Gastric Glands, 25° C., 30 minutes
assay_readout: IC50

- compound: "COc1cccc(NC(=O)NC2N=C(c3ccccc3)c3ccccc3NC2=S)c1 (stereo not shown) [Example 280]"
  result: "0.25 µM"
- compound: "O=C(NC1N=C(c2ccccc2)c2ccccc2NC1=O)c1ccc(O)cc1 (racemic) [Example 148]"
  result: "31 µM"
- compound: "O=C(NC1N=C(c2ccccc2)c2ccccc2NC1=O)c1ccc2ccccc2c1 (racemic) [Example 160]"
  result: "14 µM"
- compound: "CN1C(=O)[C@H](NC(=O)c2ccccc2Cl)N=C(c2ccccc2F)c2ccccc21 [Example 172]"
  result: "3.7 µM"

====

Molecular target: CCK receptor (pancreas) (Rattus norvegicus, UniProt P30551)
Construct: The whole pancreas was dissected free of fat tissue and was homogenized; from tissue; host or cells: rat pancreas membranes (Sprague-Dawley)
Sequence (P30551 whole entry): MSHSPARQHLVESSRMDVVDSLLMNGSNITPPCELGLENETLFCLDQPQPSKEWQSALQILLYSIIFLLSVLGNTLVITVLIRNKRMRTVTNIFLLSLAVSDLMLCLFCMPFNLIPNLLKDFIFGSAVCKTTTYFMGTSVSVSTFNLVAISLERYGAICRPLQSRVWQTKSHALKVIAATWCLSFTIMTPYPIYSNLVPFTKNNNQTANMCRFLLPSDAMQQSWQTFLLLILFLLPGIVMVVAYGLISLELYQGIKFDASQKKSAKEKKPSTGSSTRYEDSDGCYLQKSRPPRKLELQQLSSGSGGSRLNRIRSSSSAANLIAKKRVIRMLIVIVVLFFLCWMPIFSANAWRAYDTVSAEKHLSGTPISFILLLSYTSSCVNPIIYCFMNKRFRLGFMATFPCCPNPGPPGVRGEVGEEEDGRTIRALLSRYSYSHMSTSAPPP
Experiment: CCK Receptor Binding (Pancreas): inhibition of ^125 I-CCK-33 binding
Set-up: species or system Male Sprague-Dawley rats
Details: IC50 ^125 I-CCK Pancreas, rat pancreas membranes, ^125 I-CCK-33, 37° C., 30 minutes
Source text: 1. CCK Receptor Binding (Pancreas) CCK-33 was radiolabeled with ^125 I-Bolton Hunter reagent (2000 Ci/mmole) as described by Sankara et al. (J. Biol. Chem. 254: 9349-9351, 1979). […] Male Sprague-Dawley rats (200-350 g) were sacrificed by decapitation. […] The supernatant was aspirated and discarded, pellets were counted with a Beckman gamma 5000. […]
pIC50: −log10 of the molar value.
Lab note: anything with pIC50 at or over 7 counts as True; the rest go in False.

- compound: "COc1cccc(NC(=O)NC2N=C(c3ccccc3)c3ccccc3NC2=S)c1 (centres unmarked) [Example 280]"
  label_value: "True"
- compound: "CN1C(=O)/C(=C/c2ccsc2)N=C(c2ccccc2)c2ccccc21 [95 Z]"
  label_value: "False"
- compound: "O=C1Nc2ccc(Cl)cc2C(c2ccccc2)=NC1Cc1ccc2ccccc2c1 (racemic) [Example 18]"
  label_value: "False"
- compound: "O=C1Nc2ccccc2C(c2ccccc2F)=NC1Cc1c[nH]c2cc(F)ccc12 (racemic) [Example 60]"
  label_value: "False"
- compound: "O=C(NN=C1Nc2ccccc2C(c2ccccc2F)=N[C@@H]1Cc1c[nH]c2ccccc12)c1ccsc1 [Example 35]"
  label_value: "False"
- compound: "CN1C(=O)C(C(O)c2cccs2)N=C(c2ccccc2)c2ccccc21 (racemic) [Example 52]"
  label_value: "False"
- compound: "O=C1Nc2ccc(Cl)cc2C(c2ccccc2)=NC1Cc1cccc2ccccc12 (racemic) [Example 17]"
  label_value: "False"
- compound: "O=C(OC1N=C(c2ccccc2)c2ccccc2NC1=O)c1cc2ccccc2[nH]1 (racemic) [Example 107]"
  label_value: "True"
- compound: "CN1C(=O)C(C(O)c2ccccc2)N=C(c2ccccc2)c2ccccc21 (racemic) [Example 51]"
  label_value: "False"
- compound: "O=C1Nc2ccccc2C(c2ccccc2)=NC1CC1CNc2ccccc21 (centres unmarked) [Example 199]"
  label_value: "False"
- compound: "O=C1Nc2ccc(Cl)cc2C(c2ccccc2)=N[C@@H]1Cc1ccccc1 [Example 13]"
  label_value: "False"
- compound: "CN1C(=O)C(NC(=O)Nc2cccc3ccccc23)N=C(c2ccccc2)c2ccccc21 (centres unmarked) [Example 273]"
  label_value: "True"
- compound: "O=C1Nc2ccccc2C(c2ccccc2)=NC1Cc1c[nH]c2ccc(Br)cc12 (racemic) [Example 57]"
  label_value: "False"
- compound: "O=C1Nc2ccccc2C(c2ccccc2F)=NC1c1ccsc1 (racemic) [Example 20]"
  label_value: "False"
- compound: "CN1C(=O)C(NC(=S)Nc2ccccc2)N=C(c2ccccc2)c2ccccc21 (centres unmarked) [Example 277]"
  label_value: "True"
- compound: "COc1cccc(NC(=O)NC2N=C(c3ccc(C)cc3)c3ccccc3N(C)C2=O)c1 (centres unmarked) [Example 292]"
  label_value: "True"
